biological target: ROCKII (1-543) (Homo sapiens (Human), UniProt O75116); test: Luciferin-Luciferase Assay (PKLight ATP detection); assay type: biochemical; settings: 750 nM ATP, 500 nM peptide, 7.5 nM kinase
Sequence (O75116 1-543): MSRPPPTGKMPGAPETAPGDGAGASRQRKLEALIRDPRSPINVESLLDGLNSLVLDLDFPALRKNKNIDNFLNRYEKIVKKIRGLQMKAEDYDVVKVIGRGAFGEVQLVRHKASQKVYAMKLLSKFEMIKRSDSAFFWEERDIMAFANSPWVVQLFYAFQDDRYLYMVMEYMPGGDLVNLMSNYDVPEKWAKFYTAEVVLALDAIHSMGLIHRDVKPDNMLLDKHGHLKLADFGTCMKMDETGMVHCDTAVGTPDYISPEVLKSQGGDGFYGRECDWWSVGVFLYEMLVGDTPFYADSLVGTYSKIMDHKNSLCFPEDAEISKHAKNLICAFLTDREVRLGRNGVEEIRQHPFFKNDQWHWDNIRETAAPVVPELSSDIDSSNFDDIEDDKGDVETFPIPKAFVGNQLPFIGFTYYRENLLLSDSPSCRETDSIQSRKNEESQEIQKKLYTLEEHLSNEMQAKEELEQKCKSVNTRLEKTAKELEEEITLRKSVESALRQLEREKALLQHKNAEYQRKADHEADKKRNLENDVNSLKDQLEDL
pIC50: −log10 of the molar value.
Measured pIC50 values are reported for all entries that follow.
PROPERTY LABEL: pIC50

[[record]]
molecule = "CN1CCc2ccc(NC(=O)c3cccc([C@H]4CCCN4C(=O)Nc4cccc(C#N)c4)c3)cc2C1"
endpoint_result = 8.02

[[record]]
molecule = "N#Cc1ccc(NC(=O)COc2cccc(C(=O)Nc3nc4c(s3)CC(N3CCN(C5CC5)CC3)CC4)c2)cc1 (centres unmarked)"
endpoint_result = 8.21

[[record]]
molecule = "C[C@@H](NC(=O)Nc1ccc(C(N)=O)cc1)c1cccc(C(=O)Nc2ccc3c(c2)CN(C)CC3)c1"
endpoint_result = 8.02

[[record]]
molecule = "CC[C@@H](NC(=O)c1ccc(OC)c(Cl)c1)c1cccc(C(=O)Nc2nc3c(s2)CN(C)CC3)c1"
endpoint_result = 8.42

[[record]]
molecule = "N#Cc1cccc(NC(=O)N2CCC[C@@H]2c2cccc(C(=O)Nc3ccc(CCN4CCOCC4)cc3)c2)c1"
endpoint_result = 8.24

[[record]]
molecule = "CCCN[C@H]1CCc2nc(NC(=O)c3cccc([C@@H](C)NC(=O)c4ccc(OC)c(Cl)c4)c3)sc2C1"
endpoint_result = 8.92

[[record]]
molecule = "N#Cc1cccc(NC(=O)N2CCC[C@@H]2c2cccc(C(=O)Nc3ccc4c(c3)CNCC4)c2)c1"
endpoint_result = 7.94

[[record]]
molecule = "CN1CCc2nc(NC(=O)c3cccc([C@H]4CCCN4C(=O)N4CCc5c(C#N)cccc54)c3)sc2C1"
endpoint_result = 8.16


----------
target: ROCKII (1-543) (Homo sapiens (Human), UniProt O75116); assay: IMAP Assay (fluorescence polarization, FAM S6 peptide); assay type: biochemical; settings: 100 μM ATP, 200 nM FAM S6 peptide, 1 nM kinase; read-out: Assay 2 IC50
Sequence (O75116 1-543, species assumed): as the sequence (O75116 1-543) above
# class assignment by measured IC50: label 0: < 2 nM; label 1: ≥ 2 nM and < 7 nM; label 2: ≥ 7 nM

[[record]]
molecule = "O=C(Nc1nc2c(s1)C[C@@H](N1CCOCC1)CC2)c1cccc([C@H]2CCCN2C(=O)c2ccc3cc(O)ccc3c2)c1 [Compound 130]"
group = "label 1"

[[record]]
molecule = "O=C(Nc1nc2c(s1)C[C@@H](N1CCOCC1)CC2)c1cccc([C@H]2CCCN2C(=O)c2cc(-c3ccncc3)[nH]n2)c1 [Compound 138]"
group = "label 1"

[[record]]
molecule = "CN1CCc2nc(NC(=O)c3cccc([C@H]4CCCN4C(=O)Nc4ccc(C(N)=O)cc4)c3)sc2C1 [Compound 44]"
group = "label 0"

[[record]]
molecule = "N#Cc1cccc(NC(=O)N2CCC[C@@H]2c2cccc(C(=O)Nc3nc4c(s3)C[C@H](N)CC4)c2)c1 [Compound 22]"
group = "label 0"

[[record]]
molecule = "NC(=O)c1ccc2nc(C(=O)N3CCC[C@@H]3c3cccc(C(=O)Nc4nc5c(s4)C[C@@H](N4CCOCC4)CC5)c3)cn2c1 [Compound 124]"
group = "label 1"

[[record]]
molecule = "CN1CCc2nc(NC(=O)c3cccc(OCC(=O)Nc4ccc5[nH]ncc5c4)c3)sc2C1 [Compound 23]"
group = "label 0"

[[record]]
molecule = "CN(C)[C@H]1CCc2nc(NC(=O)c3cccc(OCC(=O)Nc4ccc(C#N)cc4)c3)sc2C1 [Compound 9]"
group = "label 1"

[[record]]
molecule = "O=C(Nc1nc2c(s1)C[C@@H](N1CCOCC1)CC2)c1cccc([C@H]2CCCN2C(=O)c2cccc(-c3cn[nH]c3)c2)c1 [Compound 140]"
group = "label 1"

[[record]]
molecule = "COCCN(C)C1CCc2nc(NC(=O)c3cccc(OCC(=O)Nc4ccc(C#N)cc4)c3)sc2C1 (centres unmarked) [Compound 156]"
group = "label 2"

[[record]]
molecule = "N#Cc1cccc(NC(=O)N2CCC[C@@H]2c2cccc(C(=O)Nc3ccc(CCN4CCCC4)cc3)c2)c1 [Compound 18]"
group = "label 2"

